Target: DNA gyrase (Escherichia coli) (UniProt P0AES6+P0AES4)
Experiment: In vitro antibacterial against gram-negative organism Escherichia coli JUHL
Assay type: functional
Settings: Escherichia coli K-12
Endpoint: MIC (µg/mL)

>>> endpoint_result("Cc1c(N2CCC(n3ccnn3)C2)c(F)cn2c(=O)c(C(=O)O)cc(C3CC3)c12 (stereo not drawn)")
0.01
>>> endpoint_result("COc1ccc(-c2cc(C(=O)O)c(=O)n3cc(F)c(N4CCC(N)C4)nc23)cc1 (stereo not drawn)")
25
>>> endpoint_result("Cc1c(N2C[C@@H](N)[C@@H](C)C2)c(F)cn2c(=O)c(C(=O)O)cc(C3CC3)c12")
0.005
>>> endpoint_result("Cc1c(N2CCC(N)C2)c(F)cn2c(=O)c(C(=O)O)cc(C3CC3)c12 (stereo not drawn)")
0.002
>>> endpoint_result("Cc1c(N2C[C@H]3CCN[C@H]3C2)c(F)cn2c(=O)c(C(=O)O)cc(C3CC3)c12 (single isomer, unassigned)")
0.05
>>> endpoint_result("Cc1c(N2CC(N)C2)c(F)cn2c(=O)c(C(=O)O)cc(C3CC3)c12")
0.01
>>> endpoint_result("Cc1c(N2CC[C@@]3(C[C@H]3N)C2)c(F)cn2c(=O)c(C(=O)O)cc(C3CC3)c12")
0.01
>>> endpoint_result("Cc1c(N2CC[C@H](O)C2)c(F)cn2c(=O)c(C(=O)O)cc(C3CC3)c12")
0.02
>>> endpoint_result("COc1c(N2CCC(N)C2)c(F)cn2c(=O)c(C(=O)O)cc(C3CC3)c12 (stereo not drawn)")
0.02
>>> endpoint_result("CC(=O)N[C@H]1C[C@H](C)N(c2nc3c(-c4ccc(F)cc4F)cc(C(=O)O)c(=O)n3cc2F)C1")
0.78
>>> endpoint_result("C[C@H]1C[C@H](N)CN1c1nc2c(-c3ccc(F)cc3F)cc(C(=O)O)c(=O)n2cc1F")
0.02
>>> endpoint_result("Cc1c(N2CCC(C)(N)C2)c(F)cn2c(=O)c(C(=O)O)cc(C3CC3)c12 (stereo not drawn)")
0.01
>>> endpoint_result("Cc1c(N2CCC(n3cccc3)C2)c(F)cn2c(=O)c(C(=O)O)cc(C3CC3)c12 (stereo not drawn)")
0.1
>>> endpoint_result("Cc1c(N2C[C@@H](N)C[C@@H]2C)c(F)cn2c(=O)c(C(=O)O)cc(C3CC3)c12")
0.005
>>> endpoint_result("NC1CCN(c2nc3c(C4CC4)cc(C(=O)O)c(=O)n3cc2F)C1 (stereo not drawn)")
0.02
>>> endpoint_result("Cc1c(N2C[C@@H]3C[C@H]2CN3)c(F)cn2c(=O)c(C(=O)O)cc(C3CC3)c12")
0.02
>>> endpoint_result("NC1CCN(c2nc3c(-c4ccc(F)cc4F)cc(C(=O)O)c(=O)n3cc2F)C1 (stereo not drawn)")
0.02
